Molecular target: human recombinant FAAH (Homo sapiens (Human), UniProt O00519)
Sequence (O00519 whole entry): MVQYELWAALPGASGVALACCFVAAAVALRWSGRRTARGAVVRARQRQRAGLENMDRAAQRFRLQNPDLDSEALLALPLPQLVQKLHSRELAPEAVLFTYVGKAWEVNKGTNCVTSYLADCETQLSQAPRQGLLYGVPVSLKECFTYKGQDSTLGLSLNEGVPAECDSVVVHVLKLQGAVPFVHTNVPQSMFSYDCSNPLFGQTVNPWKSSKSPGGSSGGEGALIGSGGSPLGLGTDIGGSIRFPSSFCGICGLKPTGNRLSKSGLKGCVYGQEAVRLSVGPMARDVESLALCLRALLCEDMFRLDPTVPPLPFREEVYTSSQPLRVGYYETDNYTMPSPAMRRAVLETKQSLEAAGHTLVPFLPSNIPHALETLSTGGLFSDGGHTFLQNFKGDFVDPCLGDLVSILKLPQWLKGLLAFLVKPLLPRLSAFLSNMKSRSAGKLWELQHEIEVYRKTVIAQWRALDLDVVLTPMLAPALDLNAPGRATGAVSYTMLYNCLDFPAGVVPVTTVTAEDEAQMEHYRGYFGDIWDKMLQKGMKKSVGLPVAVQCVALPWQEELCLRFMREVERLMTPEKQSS
Assay: FAAH counter screen (Fatty Acid Amide Hydrolase Inhibitor Screening Assay Kit)
Assay type: biochemical
Conditions: Method B: starting concentration of 10 μM
pIC50: −log10 of the molar value.
property_name: pIC50

Any idea what its pIC50 is? The compound is `O=C(c1cc(O)ccc1F)N1CC2(CC(n3cc(C(F)(F)F)c(-c4ccccc4F)n3)C2)C1` < 5.00

Name the recorded pIC50 for `O=C(c1cc(O)ccc1F)N1CC2(CC(n3cc(C4CC4)c(-c4ccccc4F)n3)C2)C1` . < 5.00

* * *

Target: human MAGL (Homo sapiens (Human), UniProt Q99685)
Sequence (Q99685 2-303): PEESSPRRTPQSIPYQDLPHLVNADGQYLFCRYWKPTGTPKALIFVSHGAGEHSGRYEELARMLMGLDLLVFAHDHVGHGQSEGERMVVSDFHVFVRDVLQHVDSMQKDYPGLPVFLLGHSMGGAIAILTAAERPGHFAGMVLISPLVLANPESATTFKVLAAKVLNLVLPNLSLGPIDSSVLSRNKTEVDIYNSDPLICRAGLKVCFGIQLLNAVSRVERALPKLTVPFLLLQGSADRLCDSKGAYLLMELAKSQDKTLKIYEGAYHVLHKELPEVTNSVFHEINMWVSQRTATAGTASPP
Assay: MAGL inhibition potency assay with 4NPA substrate (methods of Table C)
Type: biochemical
Conditions: Method 3: Reaction Biology MAGL enzyme, 10 nM; read-out: MAGL Potency (Detection Method)
property_name: IC50

Would you mind telling me what IC50 value was observed for Cc1cc(C2CC3(C2)CN(C(=O)c2cc(O)c(F)cc2F)C3)n(-c2ccccc2C)n1 [Compound 126] ? < 50 nM

Entry Cc1cc(C2CC3(C2)CN(C(=O)c2ccc(F)cc2OCC(F)(F)F)C3)n(-c2ccccc2C)n1 [Compound 178] has what IC50? < 50 nM

Dear colleague, I am looking for the recorded IC50 of the following compound: Cc1cc(C2CC3(C2)CN(C(=O)c2cc(O)ccc2F)C3)n(-c2ccccc2C)n1 [Compound 74] < 50 nM
